- Tested on: human DPP1 enzyme (Homo sapiens)
- Sequence (P53634 25-134 limits assumed): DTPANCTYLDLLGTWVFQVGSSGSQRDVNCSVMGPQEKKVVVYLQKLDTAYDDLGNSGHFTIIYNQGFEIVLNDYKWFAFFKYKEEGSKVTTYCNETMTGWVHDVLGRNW
- Sequence (P53634 231-394 limits assumed): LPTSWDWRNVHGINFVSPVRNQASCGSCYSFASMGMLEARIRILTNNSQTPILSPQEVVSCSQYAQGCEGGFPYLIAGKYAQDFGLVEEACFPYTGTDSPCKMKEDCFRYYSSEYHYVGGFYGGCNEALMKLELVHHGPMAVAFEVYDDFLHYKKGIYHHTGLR
- Sequence (P53634 395-463 limits assumed): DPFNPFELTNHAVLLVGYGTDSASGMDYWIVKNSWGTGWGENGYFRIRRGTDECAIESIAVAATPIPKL
- Experimental details: Human DPP1 Enzyme IC50 Assay
- Type: biochemical
- Design: was first proteolytically processed into its mature form using recombinant human cathepsin L; purchased R&D Systems
- Measurement conditions: activated recombinant human DPP1, 400 μM H-Gly-Arg-AMC, 10 minutes pre-incubation at 37° C., pH 6.0; average of n runs; read-out: Avg. IC50 (Human DPP1 enzyme IC50 value ranges)
- Experimental: Example 97. Human DPP1 Enzyme IC50 Assay Recombinant human DPP1 enzyme (R&D Systems; Minneapolis, MN) was first proteolytically processed into its mature form using recombinant human cathepsin L (R&D Systems) in a buffer consisting of 20 mM citric acid pH 4.5, 150 mM NaCl, 1 mM EDTA and 10 mM DTT. […] Substrate cleavage was measured for 90 minutes at 37° C., with fluorescence at Excitation/Emission 350/450 nm measured every 5 minutes. […]
pIC50: −log10 of the molar value.
Assay metric: pIC50

Which pIC50 is reported for this molecule? CCCN1CCC2(CC1)SCCc1ccc(-c3ccc(C[C@@H](C#N)NC(=O)[C@@H]4CNCCCO4)cc3)cc12 [Compound I3]
7.82 to 8.30

Which pIC50 is reported for this molecule? Cn1nc(F)c2ccc(-c3ccc(C[C@@H](C#N)NC(=O)[C@@H]4CNCCCO4)cc3)cc21 [Compound A1]
< 7.82

Which pIC50 is reported for this molecule? CN1C(=O)C2(CCN(C3COC3)CC2)c2cc(-c3ccc(C[C@@H](C#N)NC(=O)[C@@H]4CNCCCO4)cc3)ccc21 [Compound 29]
< 7.82

Which pIC50 is reported for this molecule? CO[C@@H]1CCNC[C@@H](C(=O)N[C@H](C#N)Cc2ccc(-c3cc4c(C)nc(C)cn4c3)s2)OC1 [Compound A34]
< 7.82

Which pIC50 is reported for this molecule? N#C[C@H](Cc1ccc(-c2ccn3ccnc3c2)cc1)NC(=O)[C@@H]1CNCCCO1 [Compound A142]
< 7.82

Which pIC50 is reported for this molecule? Cc1cn2cc(-c3cc4sc(C[C@H](C#N)NC(=O)[C@@H]5CNCCCCO5)cc4s3)cc2c(C)n1 (single isomer, unassigned) [Compound A31]
< 7.82

Which pIC50 is reported for this molecule? CN1CCC2(CC1)OC(=O)c1ccc(-c3ccc(C[C@@H](C#N)NC(=O)[C@@H]4CNCCCO4)cc3)cc12 [Compound 14]
7.82 to 8.30

Every entry's value here was drawn from patent US20260008760A1.
